- System: Amaranthus retoflexus (AMARE)
- test name: Pre-emergence Test, glasshouse, AMARE
- Format: in vivo
- experimental context: 250 g/ha, evaluated after 13 days
parameter measured: percentage damage caused to the plant, five-point scale, AMARE

C=CCn1nc(Cl)c2cccc(Oc3ncc(Cl)cn3)c21: 2 (2=21-40%)
Cc1ccc2c(Cl)nn(CCCC(F)(F)F)c2c1Oc1ncc(Cl)cn1: 5 (5=81-100%)
N#Cc1cc(Cl)cnc1Oc1cccc2cnn(CCCC(F)(F)F)c12: 4 (4=61-80%)
N#Cc1cc(Cl)cnc1Oc1cccc2c(Cl)nn(CCCC(F)(F)F)c12: 4 (4=61-80%)
C=CCCn1nc(Cl)c2cccc(Oc3ncc(Cl)cn3)c21: 4 (4=61-80%)

---

- Test system: Amaranthus retoflexus (AMARE)
- test name: Pre-emergence Test, glasshouse, AMARE
- Format: in vivo
- experimental context: 250 g/ha, evaluated after 13 days
parameter measured: percentage damage caused to the plant, five-point scale, AMARE

FC(F)(F)CCCn1nc(Cl)c2ccc(Br)c(Oc3ncc(Cl)cn3)c21 [Compound 1.037]: 1 (1=0-20%)
FC(F)(F)CCCn1nc(Cl)c2c(Cl)c(Br)cc(Oc3ncc(Cl)cn3)c21 [Compound 1.019]: 1 (1=0-20%)
N#Cc1nn(CCCC(F)(F)F)c2c(Oc3ncc(Cl)cn3)cccc12 [Compound 1.007]: 5 (5=81-100%)
Fc1cnc(Oc2cccc3c(Cl)nn(CCCC(F)(F)F)c23)nc1 [Compound 1.047]: 5 (5=81-100%)
FC(F)(F)CCCn1nc(Cl)c2cc(Br)cc(Oc3ncc(Cl)cn3)c21 [Compound 1.010]: 4 (4=61-80%)
N#Cc1cc(Cl)cnc1Oc1cc(Cl)cc2cnn(CCCC(F)(F)F)c12 [Compound 1.017]: 1 (1=0-20%)
CC(C)CCn1nc(Cl)c2cccc(Oc3ncc(Cl)cn3)c21 [Compound 1.056]: 4 (4=61-80%)
FC(F)(F)CCCn1nc(Cl)c2cccc(Oc3ncc(Cl)cn3)c21 [Compound 1.005]: 5 (5=81-100%)
FC(F)(F)CCCn1ncc2ccc(Br)c(Oc3ncc(Cl)cn3)c21 [Compound 1.036]: 1 (1=0-20%)

---

- System: IPOHE
- test name: Post-emergence Test, glasshouse, IPOHE
- Format: in vivo
- experimental context: 250 g/ha, evaluated after 13 days
parameter measured: percentage damage caused to the plant, five-point scale, IPOHE

N#Cc1ccc2cnn(CCCC(F)(F)F)c2c1Oc1ncc(Cl)cn1 [Compound 1.046]: 1 (1=0-20%)
FC(F)(F)CCCn1nc(Cl)c2c(Cl)ccc(Oc3ncc(Cl)cn3)c21 [Compound 1.026]: 2 (2=21-40%)
CC(C)Cn1nc(Cl)c2cccc(Oc3ncc(Cl)cn3)c21 [Compound 1.057]: 1 (1=0-20%)
Fc1cc(Cl)cnc1Oc1ccc(Cl)c2cnn(CCCC(F)(F)F)c12 [Compound 1.031]: 1 (1=0-20%)
FC(F)OCCn1nc(Cl)c2cccc(Oc3ncc(Cl)cn3)c21 [Compound 1.051]: 3 (3=41-60%)
FC(F)(F)CCCn1ncc2ccc(Br)c(Oc3ncc(Cl)cn3)c21 [Compound 1.036]: 1 (1=0-20%)
FC(F)(F)CCCCn1nc(Cl)c2cccc(Oc3ncc(Cl)cn3)c21 [Compound 1.068]: 2 (2=21-40%)
FC(F)(F)CCCn1nnc2cc(Cl)cc(Oc3ncc(Cl)cn3)c21 [Compound 1.050]: 3 (3=41-60%)
Cc1nn(CCCC(F)(F)F)c2c(Oc3ncc(Cl)cn3)cccc12 [Compound 1.021]: 3 (3=41-60%)

---

- Tested on: ABUTH
- test name: Post-emergence Test, glasshouse, ABUTH
- Format: in vivo
- experimental context: 250 g/ha, evaluated after 13 days
parameter measured: percentage damage caused to the plant, five-point scale, ABUTH

Cc1cnc(Oc2cccc3c(C(F)(F)F)nn(CCCC(F)(F)F)c23)nc1 [Compound 1.070]: 5 (5=81-100%)
FCCCCn1nc(Cl)c2cccc(Oc3ncc(Cl)cn3)c21 [Compound 1.039]: 4 (4=61-80%)
FC(F)(F)CCCn1nc(Cl)c2cc(Br)cc(Oc3ncc(Cl)cn3)c21 [Compound 1.010]: 1 (1=0-20%)
FC(F)(F)CCCn1nc(Cl)c2c(Br)ccc(Oc3ncc(Cl)cn3)c21 [Compound 1.028]: 2 (2=21-40%)
CC(C)CCn1nc(Cl)c2cccc(Oc3ncc(Cl)cn3)c21 [Compound 1.056]: 3 (3=41-60%)
